Reported Ki values follow for various compounds
# subjectOfTest: GABA-A receptor; anion channel
# experimentSummary: Displacement of [3H]flumazenil from bovine benzodiazepine receptor GABA-A channel of brain membranes
# Design: species or system Bos taurus
Reply with just the number (in nM).

In [3]: df
Out[3]:
                            structuresmiles  recordedmeasurement
0  O=c1[nH]c2ccc(Cl)cc2n2c(=O)c(-c3ccc(F)cc3)nn12                   56

If you can, please state the reported Ki value of O=c1[nH]c2ccccc2n2c(=O)c(-c3ccc(Cl)cc3)nn12 .
169

###

# subjectOfTest: GABA-A receptor; alpha-1/beta-2/gamma-2 (Rattus norvegicus, UniProt P18508+P62813+P63138)
# Sequence (P18508 whole entry): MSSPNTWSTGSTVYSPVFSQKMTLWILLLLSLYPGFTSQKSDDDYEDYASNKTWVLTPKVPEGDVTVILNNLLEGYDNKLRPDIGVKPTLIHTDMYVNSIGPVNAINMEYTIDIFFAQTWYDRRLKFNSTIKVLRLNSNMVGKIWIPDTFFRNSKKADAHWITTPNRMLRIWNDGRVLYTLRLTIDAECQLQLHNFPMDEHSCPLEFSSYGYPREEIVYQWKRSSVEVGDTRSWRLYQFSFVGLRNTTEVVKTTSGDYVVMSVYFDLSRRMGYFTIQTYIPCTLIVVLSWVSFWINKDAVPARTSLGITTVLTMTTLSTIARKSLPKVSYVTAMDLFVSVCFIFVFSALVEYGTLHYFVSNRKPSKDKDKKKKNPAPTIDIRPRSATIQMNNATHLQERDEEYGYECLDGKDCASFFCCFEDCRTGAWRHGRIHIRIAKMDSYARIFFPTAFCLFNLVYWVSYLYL
# Sequence (P62813 whole entry): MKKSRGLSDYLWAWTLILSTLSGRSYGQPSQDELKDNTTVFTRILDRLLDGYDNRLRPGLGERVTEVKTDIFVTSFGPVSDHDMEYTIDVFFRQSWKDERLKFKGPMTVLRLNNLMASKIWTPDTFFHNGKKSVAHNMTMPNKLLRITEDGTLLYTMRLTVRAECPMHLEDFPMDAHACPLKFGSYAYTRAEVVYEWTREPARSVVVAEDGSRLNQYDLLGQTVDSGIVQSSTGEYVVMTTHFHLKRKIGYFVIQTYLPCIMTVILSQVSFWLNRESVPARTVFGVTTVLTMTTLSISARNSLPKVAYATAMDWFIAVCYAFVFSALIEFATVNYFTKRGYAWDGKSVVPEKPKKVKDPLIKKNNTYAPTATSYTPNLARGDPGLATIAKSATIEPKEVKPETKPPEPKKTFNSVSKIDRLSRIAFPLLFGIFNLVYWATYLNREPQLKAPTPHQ
# Sequence (P63138 whole entry): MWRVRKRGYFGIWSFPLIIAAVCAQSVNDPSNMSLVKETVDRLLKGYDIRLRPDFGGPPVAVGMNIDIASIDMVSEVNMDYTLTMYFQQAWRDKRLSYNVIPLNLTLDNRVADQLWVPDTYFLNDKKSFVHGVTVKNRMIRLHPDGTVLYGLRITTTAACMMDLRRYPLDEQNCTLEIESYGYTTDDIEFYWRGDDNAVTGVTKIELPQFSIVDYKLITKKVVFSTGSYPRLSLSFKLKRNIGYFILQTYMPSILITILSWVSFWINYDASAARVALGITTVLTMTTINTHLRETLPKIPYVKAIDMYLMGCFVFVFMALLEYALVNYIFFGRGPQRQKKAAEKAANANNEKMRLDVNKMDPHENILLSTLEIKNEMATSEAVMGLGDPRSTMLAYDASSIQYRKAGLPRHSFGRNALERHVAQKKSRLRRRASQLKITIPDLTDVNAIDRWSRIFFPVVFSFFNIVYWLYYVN
# experimentSummary: Displacement of [3H]flumazenil from rat GABA-A Gamma-aminobutyric acid A receptor alpha-1-beta-2-gamma-2 expressed in HEK293 cells
# Format: cell-based
recordedEndpoint: pKi
Worth noting: pKi values are minus log10 of concentrations stated in mol/L.

                            structuresmiles                             subjectoftest  recordedmeasurement
0  COc1ccc(-c2nn3c(=O)[nH]c4ccccc4n3c2=O)cc1  GABA-A receptor; alpha-1/beta-2/gamma-2 (Rattus norvegicus, UniProt P18508+P62813+P63138)                 8.42
1  COc1ccc(-c2nn3c(=O)[nH]c4ccc(Cl)cc4n3c2=O)cc1  GABA-A receptor; alpha-1/beta-2/gamma-2 (Rattus norvegicus, UniProt P18508+P62813+P63138)                 8.74
2  O=c1[nH]c2ccc(Cl)cc2n2c(=O)c(-c3ccccc3)nn12  GABA-A receptor; alpha-1/beta-2/gamma-2 (Rattus norvegicus, UniProt P18508+P62813+P63138)                 8.76

If you can, please state the reported pKi value of O=c1[nH]c2ccccc2n2c(=O)c(-c3ccccc3)nn12 .
8.04

###

# subjectOfTest: GABA A receptor alpha-2/beta-2/gamma-2 (Rattus norvegicus, UniProt P18508+P23576+P63138)
# Sequence (P23576 whole entry, one chain of several): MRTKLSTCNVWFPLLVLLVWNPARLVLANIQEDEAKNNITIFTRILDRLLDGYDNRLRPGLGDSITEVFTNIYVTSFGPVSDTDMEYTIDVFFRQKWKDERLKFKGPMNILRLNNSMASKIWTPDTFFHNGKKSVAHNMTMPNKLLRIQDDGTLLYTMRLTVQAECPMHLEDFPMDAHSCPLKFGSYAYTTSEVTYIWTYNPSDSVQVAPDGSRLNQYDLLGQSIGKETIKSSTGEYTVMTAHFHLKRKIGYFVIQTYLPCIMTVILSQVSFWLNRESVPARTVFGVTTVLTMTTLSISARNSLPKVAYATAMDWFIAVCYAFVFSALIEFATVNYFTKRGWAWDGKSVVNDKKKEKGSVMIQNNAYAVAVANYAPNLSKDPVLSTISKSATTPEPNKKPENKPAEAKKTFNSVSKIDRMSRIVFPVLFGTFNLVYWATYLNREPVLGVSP
# experimentSummary: Displacement of [3H]flumazenil from rat GABA-A Gamma-aminobutyric acid A receptor alpha-2-beta-2-gamma-2 expressed in HEK293 cells
Reported Ki values follow for various compounds
Reply with just the number (in nM).

Sample records with Ki:
>>> df
                            structuresmiles  unitspec  recordedmeasurement
0   O=c1[nH]c2ccccc2n2c(=O)c(-c3ccccc3)nn12        nM                 27.6
1  O=c1[nH]c2ccc(Cl)cc2n2c(=O)c(-c3ccccc3)nn12        nM                 13.9
2  COc1ccc(-c2nn3c(=O)[nH]c4ccc(Cl)cc4n3c2=O)cc1        nM                   18

Reported Ki for GABA A receptor alpha-2/beta-2/gamma-2 (Rattus norvegicus, UniProt P18508+P23576+P63138), given COc1ccc(-c2nn3c(=O)[nH]c4ccccc4n3c2=O)cc1 ?
14.3

###

# subjectOfTest: GABA-A receptor; anion channel
# experimentSummary: Displacement of [3H]flumazenil from bovine benzodiazepine receptor GABA-A channel of brain membranes
Strictly below 20 nM in Ki: Criterion met. Otherwise: Criterion not met.

Answered cases to consult:
                            structuresmiles   assignedcategory
0  COc1ccc(-c2nn3c(=O)[nH]c4ccc(Cl)cc4n3c2=O)cc1      Criterion met
1  Cc1ccc(-c2nn3c(=O)[nH]c4ccc(Cl)cc4n3c2=O)cc1  Criterion not met

Check if Ki falls below 20 nM for O=c1[nH]c2ccc(Cl)cc2n2c(=O)c(-c3ccc(Cl)cc3)nn12 .
Criterion not met

Same for COc1ccc(-c2nn3c(=O)[nH]c4ccccc4n3c2=O)cc1
Criterion met

###

# subjectOfTest: GABA-A receptor; anion channel
# experimentSummary: Displacement of [3H]flumazenil from bovine benzodiazepine receptor GABA-A channel of brain membranes
Reported pKi values follow for various molecules
Worth noting: pKi values are minus log10 of concentrations stated in mol/L.

                                   molecule  recordedmeasurement
0  O=c1[nH]c2ccccc2n2c(=O)c(-c3ccc(Br)cc3)nn12                 6.65
1  Cc1ccc(-c2nn3c(=O)[nH]c4ccccc4n3c2=O)cc1                 6.21
2  O=c1[nH]c2ccc(Cl)cc2n2c(=O)c(-c3ccccc3)nn12                 8.55
3  O=C1CN=C(c2ccccc2Cl)c2cc([N+](=O)[O-])ccc2N1 [CLONAZEPAM]                 9.07
4   O=c1[nH]c2ccccc2n2c(=O)c(-c3ccccc3)nn12                 7.66

Could you now consider this next molecule?
If you can, please state the reported pKi value of O=c1[nH]c2ccccc2n2c(=O)c(-c3ccc(F)cc3)nn12 .
7.27

Where these numbers come from: ChEMBL document CHEMBL1144412
